tested on: HIV-1; experiment: Single-round infectious HIV-1 luciferase reporter virus infection of HeLa CD4 cells; assay type: cell-based; settings: Human immunodeficiency virus 1, HeLa, 72 h, read-out: EC50 Group from Table 1
property: EC50

Guide cases for EC50, answers given:
# compound, EC50
data = [
    ("CC(=O)Nc1ccc(F)c2c(C(=O)C(=O)N3CCC(=C(C#N)c4ccccc4)CC3)c[nH]c12 [P-B-4]", "< 1000 nM"),
    ("COC(=O)CCCNC(=O)Nc1cccc2c(C(=O)C(=O)N3CCN(C(=O)c4ccccc4)C[C@H]3C)c[nH]c12 [P-C-4]", "< 1000 nM"),
    ("N#CC(=C1CCN(C(=O)C(=O)c2c[nH]c3c(NC(=O)NC(CCC(=O)O)C(=O)O)cccc23)CC1)c1ccccc1 (stereo not shown) [P-I-8]", "< 1000 nM"),
    ("C[C@@H]1CN(C(=O)c2ccccc2)CCN1C(=O)C(=O)c1c[nH]c2c(NS(C)(=O)=O)cccc12 [P-E-1]", "< 1000 nM"),
    ("C[C@@H]1CN(C(=O)c2ccccc2)CCN1C(=O)C(=O)c1c[nH]c2c(NC(=O)NCCC(=O)O)cccc12 [P-I-2]", "< 1000 nM"),
    ("CCOC(=O)CCCCCNC(=O)Nc1cccc2c(C(=O)C(=O)N3CCN(C(=O)c4ccccc4)C[C@H]3C)c[nH]c12 [P-C-7]", "< 1000 nM"),
]

Ask: Fill in: EC50 of N#CC(=C1CCN(C(=O)C(=O)c2c[nH]c3c(NC(=O)Nc4cc(C(=O)O)cc(C(=O)O)c4)cccc23)CC1)c1ccccc1 [P-I-15] is ___
Reply: < 1000 nM
